# tested.target: mMC5R (Mus musculus)
# Sequence (P41149 whole entry): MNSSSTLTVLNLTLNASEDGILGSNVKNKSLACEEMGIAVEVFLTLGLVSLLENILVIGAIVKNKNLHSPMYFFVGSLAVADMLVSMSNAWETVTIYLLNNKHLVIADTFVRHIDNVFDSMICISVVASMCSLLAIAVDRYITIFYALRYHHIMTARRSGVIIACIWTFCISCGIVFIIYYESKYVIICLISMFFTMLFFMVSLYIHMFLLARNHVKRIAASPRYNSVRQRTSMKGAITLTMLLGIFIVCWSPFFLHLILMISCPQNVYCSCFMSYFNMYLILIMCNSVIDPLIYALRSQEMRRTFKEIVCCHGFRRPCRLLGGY
# protocol.text: CRE/β-galactosidase reporter gene bioassay, agonist activity at mMC5R
# Type: cell-based
# recorded.conditions: comparisons are to reference peptide 1
Square brackets hold non-standard residues; d marks the D form. Peptide text beside a SMILES is read from it. * marks the point of attachment. Bta = N[C@@H](Cc1csc2ccccc12)C(=O)O; Octanoyl = CCCCCCCC(=O)*
value.type: mMC5R pharmacology in words

CCCCCCCC(=O)N[C@@H](Cc1c[nH]cn1)C(=O)N[C@H](Cc1ccc(I)cc1)C(=O)N[C@@H](CCCNC(=N)N)C(=O)N[C@@H](Cc1c[nH]c2ccccc12)C(N)=O [Peptide 6, Octanoyl-His-(pI)DPhe-Arg-Trp-NH2]	equipotent
CCCCCCCC(=O)N[C@@H](Cc1c[nH]cn1)C(=O)N[C@H](Cc1ccccc1)C(=O)N[C@@H](CCCNC(=N)N)C(=O)N[C@@H](Cc1csc2ccccc12)C(N)=O [Peptide 3, Octanoyl-His-DPhe-Arg-3Bal-NH2] (Octanoyl-H[dF]R[Bta]-NH2)	equipotent

----------
# tested.target: UniProtKB P56450
# protocol.text: Antagonist Schild analysis against agonist MTII at mMC4R
# Type: cell-based
Square brackets hold non-standard residues; d marks the D form. Peptide text beside a SMILES is read from it. Bip = N[C@@H](Cc1ccc(-c2ccccc2)cc1)C(=O)O; dBip = N[C@H](Cc1ccc(-c2ccccc2)cc1)C(=O)O; dPhe(4-I) = N[C@H](Cc1ccc(I)cc1)C(=O)O; Bta = N[C@@H](Cc1csc2ccccc12)C(=O)O; 2Thi = N[C@@H](Cc1cccs1)C(=O)O
# Kb per entry

Data request: Which measured Kb value corresponds to CC(=O)N[C@@H](Cc1c[nH]cn1)C(=O)N[C@H](Cc1ccc(-c2ccccc2)cc1)C(=O)N[C@@H](CCCNC(=N)N)C(=O)N[C@@H](Cc1ccc(-c2ccccc2)cc1)C(N)=O [Peptide 33, Ac-His-DBip-Arg-Bip-NH2] (Ac-H[dBip]R[Bip]-NH2) ?
Data returned: 0.158 µM

Data request: Now the same for CC(=O)N[C@@H](Cc1cccs1)C(=O)N[C@H](Cc1ccc(I)cc1)C(=O)N[C@@H](CCCNC(=N)N)C(=O)N[C@@H](Cc1c[nH]c2ccccc12)C(N)=O [Peptide 14, Ac-2Thi-(pI)DPhe-Arg-Trp-NH2] (Ac-[2Thi][dPhe(4-I)]RW-NH2)
Data returned: 0.00398 µM

Data request: Now the same for CC(=O)N[C@@H](Cc1c[nH]cn1)C(=O)N[C@H](Cc1ccc(-c2ccccc2)cc1)C(=O)N[C@@H](CCCNC(=N)N)C(=O)N[C@@H](Cc1csc2ccccc12)C(N)=O [Peptide 34, Ac-His-DBip-Arg-3Bal-NH2] (Ac-H[dBip]R[Bta]-NH2)
Data returned: 0.02 µM

----------
# tested.target: mMC4R (Mus musculus)
# Sequence (P56450 whole entry): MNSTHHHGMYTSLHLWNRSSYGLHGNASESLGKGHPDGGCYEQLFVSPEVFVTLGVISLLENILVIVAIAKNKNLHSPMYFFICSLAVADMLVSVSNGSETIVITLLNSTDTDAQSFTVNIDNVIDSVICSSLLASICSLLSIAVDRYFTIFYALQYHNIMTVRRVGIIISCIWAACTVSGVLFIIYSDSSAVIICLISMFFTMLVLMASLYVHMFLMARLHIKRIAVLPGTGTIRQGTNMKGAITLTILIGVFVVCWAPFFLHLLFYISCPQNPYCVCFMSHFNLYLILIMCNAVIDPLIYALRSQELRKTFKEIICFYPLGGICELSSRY
# protocol.text: CRE/β-galactosidase reporter gene bioassay, agonist activity at mMC4R
# Type: cell-based
# recorded.conditions: fold difference in EC50 vs peptide 1; negative prefix = more potent than 1
Square brackets hold non-standard residues; d marks the D form. Peptide text beside a SMILES is read from it. * marks the point of attachment. 2Nal = N[C@@H](Cc1ccc2ccccc2c1)C(=O)O; 3Pal = N[C@@H](Cc1cccnc1)C(=O)O; Octanoyl = CCCCCCCC(=O)*
# mMC4R Fold Diff. per entry
Returns: the value as a bare number; no unit string appended.

A selection of reference data follows.
CC(=O)N[C@@H](Cc1cccnc1)C(=O)N[C@H](Cc1ccccc1)C(=O)N[C@@H](CCCNC(=N)N)C(=O)N[C@@H](Cc1ccc2ccccc2c1)C(N)=O [Peptide 23, Ac-3PAL-DPhe-Arg-Nal(2’)-NH2] (Ac-[3Pal][dF]R[2Nal]-NH2)	8
CCCCCCCC(=O)N[C@H](Cc1c[nH]cn1)C(=O)N[C@H](Cc1ccccc1)C(=O)N[C@@H](CCCNC(=N)N)C(=O)N[C@@H](Cc1c[nH]c2ccccc12)C(N)=O [Peptide 9, Octanoyl-DHis-DPhe-Arg-Trp-NH2]	25

API: the following record is the query input.
Data request: Which measured mMC4R Fold Diff. value corresponds to CCCCCCCC(=O)N[C@@H](Cc1c[nH]cn1)C(=O)N[C@H](Cc1ccccc1)C(=O)N[C@@H](CCCNC(=N)N)C(=O)N[C@@H](Cc1ccccc1)C(N)=O [Peptide 5, Octanoyl-His-DPhe-Arg-Phe-NH2] (Octanoyl-H[dF]RF-NH2) ?
Data returned: 8
